Field: combination Emax. Provide a value for each of the compounds that follow.
system: CAL-120 (Breast Carcinoma); experiment: combination Emax (second highest fraction inhibited in the dose matrix, 72 h); higher = more inhibition; extreme values may be limits of the assay
// keep it numeric: no unit symbol after the value

Return reported combination Emax; argument: CC1(C)CCC(CN2CCN(c3ccc(C(=O)NS(=O)(=O)c4ccc(NCC5CCOCC5)c([N+](=O)[O-])c4)c(Oc4cnc5[nH]ccc5c4)c3)CC2)=C(c2ccc(Cl)cc2)C1 [Venetoclax] + C1CN(CCC1(C(=O)N[C@@H](CCO)C2=CC=C(C=C2)Cl)N)C3=NC=NC4=C3C=CN4 [Capivasertib] (first compound max 1 µM, 7x7, partner max 3 µM)
0.227

Return reported combination Emax; argument: CC1(C)CCC(CN2CCN(c3ccc(C(=O)NS(=O)(=O)c4ccc(NCC5CCOCC5)c([N+](=O)[O-])c4)c(Oc4cnc5[nH]ccc5c4)c3)CC2)=C(c2ccc(Cl)cc2)C1 [Venetoclax] + COc1cc(Nc2ncc3c(n2)-c2ccc(Cl)cc2C(c2c(F)cccc2OC)=NC3)ccc1C(=O)O [Alisertib] (first compound max 1 µM, 7x7, partner max 10 µM)
0.384

Return reported combination Emax; argument: CN(CCO)CC[C@H](CSc1ccccc1)Nc1ccc(S(=O)(=O)NC(=O)c2ccc(N3CCC([C@@H](O)c4ccccc4-c4ccc(Cl)cc4)CC3)cc2)cc1S(=O)(=O)C(F)(F)F [AZD4320] + C[C@@H](Nc1cc(F)cc(F)c1)c1cc(C(=O)N(C)C)cc2c(=O)cc(N3CCOCC3)oc12 [AZD8186] (first compound max 1 µM, 7x7, partner max 3 µM)
0.735

Return reported combination Emax; argument: COc1cccc(OCCCN)c1-c1cc(Nc2cnc(C#N)cn2)n[nH]1 [Prexasertib] + CCc1c2c(nc3ccc(O)cc13)-c1cc3c(c(=O)n1C2)COC(=O)[C@]3(O)CC [SN-38] (first compound max 1 µM, 7x7, partner max 0.3 µM)
0.85

Return reported combination Emax; argument: COc1nnc2ccc(N3CCC(c4ccc(OCCN5CCN(C)C(=O)[C@H]5C)cc4)CC3)nn12 [AZD5153] + Cn1cnc2c(F)c(Nc3ccc(Br)cc3Cl)c(C(=O)NOCCO)cc21 [Selumetinib] (first compound max 1 µM, 7x7, partner max 10 µM)
0.479

Return reported combination Emax; argument: Cc1c2c(nn1C)CSCc1cc(n(C)n1)CSc1cc(c3ccccc3c1)OCCCc1c(C(=O)O)n(C)c3c-2c(Cl)ccc13 [AZD5991] + C=CCn1c(=O)c2cnc(Nc3ccc(N4CCN(C)CC4)cc3)nc2n1-c1cccc(C(C)(C)O)n1 [AZD1775] (first compound max 1 µM, partner max 1 µM)
0.405

###

test system: RERF-LC-Sq1 (Squamous Cell Lung Carcinoma); assay: Bliss excess, mean over the matrix (fraction); higher = more synergy;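 also: after 72 h of two-drug dosing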
Field: Bliss excess. Provide a value for each of the compounds that follow.
// keep it numeric: no unit symbol after the value

Return reported Bliss excess; argument: COc1nnc2ccc(N3CCC(c4ccc(OCCN5CCN(C)C(=O)[C@H]5C)cc4)CC3)nn12 [AZD5153] + CCN(CCO)CCCOc1ccc2c(Nc3cc(CC(=O)Nc4cccc(F)c4)[nH]n3)ncnc2c1 [AZD2811] (first compound max 1 µM, 7x7, partner max 1 µM)
0.0063

Return reported Bliss excess; argument: C[C@@H](c1ccc2nccn2c1)n1nnc2ncc(-c3cnn(C)c3)nc21 [Savolitinib] + Cc1c2c(nn1C)CSCc1cc(n(C)n1)CSc1cc(c3ccccc3c1)OCCCc1c(C(=O)O)n(C)c3c-2c(Cl)ccc13 [AZD5991] (first compound max 1 µM, 7x7, partner max 1 µM)
-0.009

Return reported Bliss excess; argument: NC1(C(=O)N[C@@H](CCO)c2ccc(Cl)cc2)CCN(c2ncnc3[nH]ccc23)CC1 [Capivasertib] + Cn1cnc2c(F)c(Nc3ccc(Br)cc3Cl)c(C(=O)NOCCO)cc21 [Selumetinib] (first compound max 10 µM, 7x7, partner max 10 µM)
0.0005

Return reported Bliss excess; argument: Cc1c2c(nn1C)CSCc1cc(n(C)n1)CSc1cc(c3ccccc3c1)OCCCc1c(C(=O)O)n(C)c3c-2c(Cl)ccc13 [AZD5991] + Cn1cnc2c(F)c(Nc3ccc(Br)cc3Cl)c(C(=O)NOCCO)cc21 [Selumetinib] (first compound max 1 µM, 7x7, partner max 3 µM)
0.0048
